B1: LINE1-full (parent)
chain: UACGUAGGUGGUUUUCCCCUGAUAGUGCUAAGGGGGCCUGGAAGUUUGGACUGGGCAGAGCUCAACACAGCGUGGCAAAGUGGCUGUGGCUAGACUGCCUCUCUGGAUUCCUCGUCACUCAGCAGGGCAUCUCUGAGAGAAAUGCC

- Variants of: B1
- test_summary: self-cleavage, relative activity (ratio to wild type); higher = more cleavage; in vitro, sequencing; the parent is a self-cleaving ribozyme
Assign satisfied to entries whose self-cleavage meets or exceeds 0.9; assign not satisfied to the rest.

UACGUAGGUGGUUUUCCCCUGAUAGUGCUAAGGGGGCCUGGAAGUUUGGACUGGGCAGAGCUCAACACAGCGUGGCAAAGUGACUGUGGCUAGACUGCCUCUCUGGACUCCUCGUCACUCAGCAGGGCAUCUCUGAGAGAAAUGCC [G83A U108C] = not satisfied
UACGUAGGUGGUUUUCCCCUGAUAGUGCUGAGGGGGCCUGGAAGUUUGGACUGGGCAGAGCUUAACACAGCGUGGCAAAGUGGCUGUGGCUAGACUGCCUCUCUGGAUUCCUCGUCACUCAGCAGGGCAUCUCUGAGAGAAAUGCC [A30G C63U] = not satisfied
UACGUAGGUGGUUUUCCCCUGAUAGUGCUAAGCGGGCCUGGAAGUUUGGACUGGGCAGAGCUCAACACAGUGUGGCAAAGUGGCUGUGGCUAGACUGCCUCUCUGGAUUCCUCGUCACUCAGCAGGGCAUCUCUGAGAGAAAUGCC [G33C C71U] = satisfied
UACGUAGGUGGUUUUCCCCUGAUAGCGCUAAGGGGGCCUGGAAGUUUGGACUGGGCAGAGCUCAACACAGCGUGGCAAAGUGGCUGUGGCUAGACUGCCUCUCUGGAUUCCUCGUCUCUCAGCAGGGCAUCUCUGAGAGAAAUGCC [U26C A117U] = satisfied
UACGUAGGUGGUUUUCCCCUGAUAGUGCUAAGGGGGCCUGGAAGUUUGGACUGGGCAGAGCUCAACACAGCGUGGCAAAGUGGCUGUGGCUAGACUGCCUCUCCGGAUUCCUCGUUACUCAGCAGGGCAUCUCUGAGAGAAAUGCC [U104C C116U] = satisfied

Decide: is the reported value of self-cleavage for UACGUAGGUGGUUUUCCCCUGAUAGUGCUAAGGGGGCCUGGAAGUUUGGACUGGGCAGCGCUCAACACAGCGUGGCAAAGUGGCUGUGGCUAGACUGCCUCUCUGGAUUCCUCGUCACUCAGCAGGGCAUCUCUGAGAGAAAUGCU [A59C C146U] equal to or greater than 0.9?
satisfied

Decide: is the reported value of self-cleavage for UACGUAGGUGGUUUUCCCCUGAUAGUGCUAAGGGAGCCUGGAAGUUUGGACUGGGCAGAGCUCAACACAGCGUGGCAAAGUGCCUGUGGCUAGACUGCCUCUCUGGAUUCCUCGUCACUCAGCAGGGCAUCUCUGAGAGAAAUGCC [G35A G83C] equal to or greater than 0.9?
not satisfied

Decide: is the reported value of self-cleavage for UACGUAGGUGGUUUUCCCCUGAUAGUGCUAAGGGGGCCUGGAGGUUCGGACUGGGCAGAGCUCAACACAGCGUGGCAAAGUGGCUGUGGCUAGACUGCCUCUCUGGAUUCCUCGUCACUCAGCAGGGCAUCUCUGAGAGAAAUGCC [A43G U47C] equal to or greater than 0.9?
satisfied

Decide: is the reported value of self-cleavage for UACGUAGGUGGUUUUCCCCUGAUAGUGCUAAGGGGGCCUGGAAGUUUGGACUGGGCAGAGCUCAACACAGCGUGGCAAAGUGGCUGUGGCUAAACUGCCUCUCUUGAUUCCUCGUCACUCAGCAGGGCAUCUCUGAGAGAAAUGCC [G93A G105U] equal to or greater than 0.9?
not satisfied

Decide: is the reported value of self-cleavage for UACGUAGGUGGUUUUCCCCUGAUAGUGCUAAGGGGGUCUGGAAGUUUGGACUGGGCAGAGCUCAACACAGCGUGGCAAAGUGGCUGUGGCUAGACUGCCUCUCUGGAUUCCUCGUCACUCAGCAGGGCAUCUCCGAGAGAAAUGCC [C37U U134C] equal to or greater than 0.9?
satisfied

Decide: is the reported value of self-cleavage for UACGUAGGUGGUUUUCCCCUGAUAGUGCUAAGGUGGCCUGGAAGUUUGGACUGGGCAGAGCUCAACACAGCGUGGCAAAGUGGCUGUGGCUAGACUGCCUCUCUGGAUUCCUCGUCACUCAGCAGGGCAUCUCUGAGAGAAAUGCU [G34U C146U] equal to or greater than 0.9?
satisfied

Decide: is the reported value of self-cleavage for UACGUAGGUGGUUUUCCCCUGAUAGUGCUAGGGGGGCCUGGAAGUUUGGACUGGGCAGAGCUCAACACAGCAUGGCAAAGUGGCUGUGGCUAGACUGCCUCUCUGGAUUCCUCGUCACUCAGCAGGGCAUCUCUGAGAGAAAUGCC [A31G G72A] equal to or greater than 0.9?
not satisfied
